# System: pERK level in H358 cells
# PROTOCOL_DESCRIPTION: pERK and ERK protein content assay in H358 cells (ELISA)
# Assay type: cell-based
# CONDITION_DETAILS: Homo sapiens, NCI-H358, compound 1 μM, 24 h, pERK/ERK ratio compared with DMSO group, read-out: Inhibition rate (%) of pERK level
MEASUREMENT_TYPE: inhibition at 1 µM

For orientation, consider the following solved cases.
* C=CC(=O)N1CC2(CCN(c3nc(N4CC(N5CCC5)C4)nc4c(OCC(F)(F)F)c(-c5c(C)ccc6[nH]ncc56)c(C5CC5)cc34)CC2)C1 | > 90%
* C=C(F)C(=O)N1CC2(CCN(c3nc(N4CC5(CCN(C)CC5)C4)nc4c(OCC(F)(F)F)c(-c5c(C)ccc6[nH]ncc56)c(C5CC5)cc34)CC2)C1 | 50 to 90%
* C=CC(=O)N1CC2(CCN(c3nc(N4CC(N5CCC5)C4)nc4c(OCC(F)(F)F)c(-c5c(C)ccc6[nH]ncc56)c(C=C)cc34)CC2)C1 | > 90%

Consider C=CC(=O)N1CC2(CCN(c3nc(N(C)CCN4CC[C@H](F)C4)nc4c(OCC(F)(F)F)c(-c5c(C)ccc6[nH]ncc56)c(C5CC5)cc34)CC2)C1 . Its measured inhibition at 1 µM is > 90%

Consider C=CC(=O)N1CC2(CCN(c3nc(N(C)CCN4CC(C)C4)nc4c(OCC(F)(F)F)c(-c5c(C)ccc6[nH]ncc56)c(C5CC5)cc34)CC2)C1 . Its measured inhibition at 1 µM is > 90%

Consider C=CC(=O)N1CC2(CCN(c3nc(N4CC5(CN(C)C5)C4)nc4c(OCC(F)(F)F)c(-c5c(C)ccc6[nH]ncc56)c(C5CC5)cc34)CC2)C1 . Its measured inhibition at 1 µM is > 90%
